Measured MIC by item
# Test system: C. difficile strain 630 (CD630, ATCC BAA-1382-FZ, ribotype 012)
# Assay Text: MIC by broth microdilution
# Type: cell-based, Clostridium difficile
# Measurement Context: Clostridioides difficile, ATCCBAA1382; BHIS broth, anaerobic, 20–24 h, n = 2

| Smiles Repr | Relation | MIC [µg/mL] |
| --- | --- | --- |
| O=C(Nc1ccc(Oc2ccc(Cl)cc2)cc1)c1cc(I)cc(I)c1O | = | 0.13 |
| O=C(Nc1ccc(Oc2ccc(F)cc2)cc1)c1cc(I)cc(I)c1O | = | 0.13 |
| O=C(Nc1ccc(Oc2ccc(Cl)cc2)cc1)c1cc(I)cc(I)c1 | > | 32 |
| COc1c(I)cc(I)cc1C(=O)Nc1ccc2ccccc2c1 | > | 32 |
| Cc1ccc(Oc2ccc(NC(=O)c3cc(I)cc(I)c3O)cc2)cc1 | = | 0.13 |
| O=C(Nc1ccc(Cl)cc1)c1cc(I)cc(I)c1O | = | 0.25 |
| O=C(NCCc1ccc(Cl)cc1Cl)c1cc(I)cc(I)c1O | = | 0.25 |
| O=C(NCCc1cccc(Cl)c1)c1cc(I)cc(I)c1O | = | 1 |
| O=C(Nc1ccc2c(c1)Cc1ccccc1-2)c1cc(I)cc(I)c1O | = | 0.25 |

###

# Tested on: C. difficile strain 4118 (CD4118, ATCC BAA-1870, ribotype 027)
# Assay Text: MIC by broth microdilution
# Format: cell-based, Clostridium difficile
# Measurement Context: Clostridioides difficile, ATCCBAA1870; BHIS broth, anaerobic, 20–24 h, n = 2; read-out: MIC C. difficile 4118
Structures can show the parent of a compound that is named as a salt.
Sorting guide: entries reporting MIC beneath 0.5 µg/mL go in the Met pile, the rest go in the Not met pile.

| Molecule | Measurement Target | Group Label |
| --- | --- | --- |
| O=C(Nc1ccc(Oc2ccccc2)cc1)c1cc(I)cc(I)c1O [Compound 5a] | C. difficile strain 4118 (CD4118, ATCC BAA-1870, ribotype 027) | Not met |
| O=C(Nc1ccc(Oc2ccc(Cl)cc2)cc1)c1cc(Cl)cc(Cl)c1O [Compound 8] | C. difficile strain 4118 (CD4118, ATCC BAA-1870, ribotype 027) | Met |
| O=C(NCCc1ccccc1Cl)c1cc(I)cc(I)c1O [Compound 7f] | C. difficile strain 4118 (CD4118, ATCC BAA-1870, ribotype 027) | Not met |
| O=C(Nc1ccc(Oc2ccc(Cl)cc2)cc1)c1cc(I)cc(I)c1O [Compound 5g] | C. difficile strain 4118 (CD4118, ATCC BAA-1870, ribotype 027) | Met |
| O=C(Nc1ccc(Oc2ccc(F)cc2)cc1)c1cc(I)cc(I)c1O [Compound 5e] | C. difficile strain 4118 (CD4118, ATCC BAA-1870, ribotype 027) | Met |
| O=C(NCCc1cccc(Cl)c1)c1cc(I)cc(I)c1O [Compound 7g] | C. difficile strain 4118 (CD4118, ATCC BAA-1870, ribotype 027) | Not met |
| CN[C@H](CC(C)C)C(=O)N[C@H]1C(=O)N[C@@H](CC(N)=O)C(=O)N[C@H]2C(=O)N[C@H]3C(=O)N[C@H](C(=O)N[C@H](C(=O)O)c4cc(O)cc(O)c4-c4cc3ccc4O)[C@H](O)c3ccc(c(Cl)c3)Oc3cc2cc(c3O[C@@H]2O[C@H](CO)[C@@H](O)[C@H](O)[C@H]2O[C@H]2C[C@](C)(N)[C@H](O)[C@H](C)O2)Oc2ccc(cc2Cl)[C@H]1O [Vancomycin, vancomycin hydrochloride hydrate] | C. difficile strain 4118 (CD4118, ATCC BAA-1870, ribotype 027) | Not met |
| Cc1ccc(Oc2ccc(NC(=O)c3cc(I)cc(I)c3O)cc2)cc1 [Compound 5f] | C. difficile strain 4118 (CD4118, ATCC BAA-1870, ribotype 027) | Met |
| O=C(Nc1ccccc1Cl)c1cc(I)cc(I)c1O [Compound 7c] | C. difficile strain 4118 (CD4118, ATCC BAA-1870, ribotype 027) | Not met |
| O=C(Nc1ccc(Oc2ccccc2)cc1)c1cc(I)cc(I)c1 [Compound 5c] | C. difficile strain 4118 (CD4118, ATCC BAA-1870, ribotype 027) | Not met |
| COc1c(I)cc(I)cc1C(=O)Nc1ccc(Oc2ccccc2)cc1 [Compound 5b] | C. difficile strain 4118 (CD4118, ATCC BAA-1870, ribotype 027) | Not met |
| O=C(Nc1ccc(-c2ccccc2)cc1)c1cc(I)cc(I)c1O [Compound 7a] | C. difficile strain 4118 (CD4118, ATCC BAA-1870, ribotype 027) | Not met |
| O=C(Nc1ccc(Oc2ccc(Cl)cc2)cc1)c1cc(I)cc(I)c1 [Compound 5i] | C. difficile strain 4118 (CD4118, ATCC BAA-1870, ribotype 027) | Not met |
| CN(C(=O)c1cc(I)cc(I)c1O)c1ccc(Oc2ccccc2)cc1 [Compound 5d] | C. difficile strain 4118 (CD4118, ATCC BAA-1870, ribotype 027) | Not met |
| O=C(Nc1ccc2ccccc2c1)c1cc(I)cc(I)c1 [Compound 6c] | C. difficile strain 4118 (CD4118, ATCC BAA-1870, ribotype 027) | Not met |
| Cc1ncc([N+](=O)[O-])n1CCO [Metronidazole, metronidazole] | C. difficile strain 4118 (CD4118, ATCC BAA-1870, ribotype 027) | Met |
| COc1c(I)cc(I)cc1C(=O)Nc1ccc2ccccc2c1 [Compound 6b] | C. difficile strain 4118 (CD4118, ATCC BAA-1870, ribotype 027) | Not met |
| COc1c(I)cc(I)cc1C(=O)Nc1ccc(Oc2ccc(Cl)cc2)cc1 [Compound 5h] | C. difficile strain 4118 (CD4118, ATCC BAA-1870, ribotype 027) | Not met |
| O=C(Nc1ccc(I)cc1)c1cc(I)cc(I)c1O [Compound 7d] | C. difficile strain 4118 (CD4118, ATCC BAA-1870, ribotype 027) | Met |
| Cc1cc(C(C#N)c2ccc(Cl)cc2)c(Cl)cc1NC(=O)c1cc(I)cc(I)c1O (stereo not shown) [Closantel] | C. difficile strain 4118 (CD4118, ATCC BAA-1870, ribotype 027) | Met |
